Listing of entries alongside the reported Antimicrobial activity (MIC).
# Test system: S. epidermidis, 56500
# ASSAY_OVERVIEW: Antimicrobial activity (MIC), standard method of Nippon Kagakuryoho Gakkai
# Assay type: cell-based
# CONDITION_DESCRIPTION: S. epidermidis
Reply with just the number (in µg/mL).

compound="NC1CN(c2c(F)cc3c(=O)c(C(=O)O)cn(C4CC4F)c3c2Cl)CC12CC2 (centres unmarked) [Compound 26ba]" property_name="Antimicrobial activity (MIC)" endpoint_result=0.20

Then this compound:
stdin: Lab request: please report Antimicrobial activity (MIC) under test system S. epidermidis, 56500 for N[C@H]1CCN(c2cc3c(cc2F)c(=O)c(C(=O)O)cn3[C@@H]2C[C@@H]2F)C1 (relative stereo) [Compound 9b]
stdout: 0.39
